Measured SPOT peptide array binding signal intensity of individual entries
target: AgAbp1; assay: SPOT peptide array binding signal intensity (averaged, normalized) (arbitrary units (background-subtracted, floor 0; scale differs between SH3 domains)); higher = stronger binding of the SH3 domain to the peptide

IN: Could you please provide reported SPOT peptide array binding signal intensity for QRKSLRRPTLSKPAV ? Thanks!
OUT: 32

IN: Item APKHAPPPVPNETDN : provide SPOT peptide array binding signal intensity
OUT: ≤ 0

IN: Supply SPOT peptide array binding signal intensity value. Item: RRASLFPRDPKRLRP
OUT: 89.5

IN: Check the records and state SPOT peptide array binding signal intensity for NFLRLLIGLPSQNEL
OUT: ≤ 0
